The reported measurements were obtained from patent US20140323300A1.

- Tested on: Ipomoea hederacea (IPOHE)
- assay_summary: Pre-emergence glasshouse herbicide test
- Format: in vivo
- reported_conditions: pre-emergence (sprayed after one day cultivation), 1000 g/h, evaluated after 13 days, five point scale
Below: a set of entries, each annotated with reported percentage damage caused to the plant, PRE Application IPOHE.

# compound, assayed_system, experimental_value
measured = [
    ("Cc1c(-n2ncc(Br)c(O)c2=O)ccc(S(C)(=O)=O)c1C1=NOCC1", "Ipomoea hederacea (IPOHE)", "4 (4=60-79%)"),
]

percentage damage caused to the plant, PRE Application IPOHE measured on Cc1c(-n2nccc(O)c2=O)ccc(S(C)(=O)=O)c1C1=NOCC1 = 5 (5=80-100%)

percentage damage caused to the plant, PRE Application IPOHE measured on C=C(C)c1cnn(-c2ccc(C(F)(F)F)nc2C)c(=O)c1O = 5 (5=80-100%)

percentage damage caused to the plant, PRE Application IPOHE measured on C=C(C)C1C=NN(c2ccc(C(F)(F)F)cc2S(C)(=O)=O)C(=O)C1=O (centres unmarked) = 5 (5=80-100%)

====

- Test system: Ipomoea hederacea (IPOHE)
- assay_summary: Post-emergence glasshouse herbicide test
- Assay type: in vivo
- reported_conditions: post-emergence (sprayed after 8 days cultivation), 1000 g/h, evaluated after 13 days, five point scale
- Method: Seeds of a variety of test species are sown in standard soil in pots (Alopecurus myosuroides (ALOMY), Setaria faberi (SETFA), Echinochloa crus-galli (ECHCG), Solanum nigrum (SOLNI), Amaranthus retoflexus (AMARE), Ipomoea hederacea (IPOHE)). […] After 13 days for pre and post-emergence, the test is evaluated for the percentage damage caused to the plant. […]
assay_metric: percentage damage caused to the plant, POST Application IPOHE

Check out these entries, answers already filled in.
# compound, experimental_value
data = [
    ("Cc1nc(C(F)(F)F)ccc1-n1nccc(O)c1=O.O=C(O)C(F)(F)F", "5 (5=80-100%)"),
    ("Cc1nc(C(F)(F)F)ccc1-n1ncc(S(C)(=O)=O)c(O)c1=O", "2 (2=20-39%)"),
    ("COc1cnn(-c2ccc(C(F)(F)F)cc2C(F)(F)F)c(=O)c1O", "3 (3=40-59%)"),
    ("CCc1cnn(-c2ccc(C(F)(F)F)cc2S(C)(=O)=O)c(=O)c1O", "5 (5=80-100%)"),
    ("O=c1c(O)c(Cl)cnn1-c1ccc(C(F)(F)F)cc1C(F)(F)F", "5 (5=80-100%)"),
]

percentage damage caused to the plant, POST Application IPOHE measured on Cc1c(-n2ncc([S+](C)[O-])c(O)c2=O)ccc(S(C)(=O)=O)c1C1=NOCC1 (centres unmarked) = 3 (3=40-59%)

percentage damage caused to the plant, POST Application IPOHE measured on CS(=O)(=O)c1cc(C(F)(F)F)ccc1-n1ncc(C2CC2)c(O)c1=O = 5 (5=80-100%)

====

- Tested on: Ipomoea hederacea (IPOHE)
- assay_summary: Pre-emergence glasshouse herbicide test
- Format: in vivo
- reported_conditions: pre-emergence (sprayed after one day cultivation), 1000 g/h, evaluated after 13 days, five point scale
assay_metric: percentage damage caused to the plant, PRE Application IPOHE

# compound, experimental_value
data = [
    ("CS(=O)(=O)c1cc(C(F)(F)F)ccc1-n1ncc(Br)c(O)c1=O", "5 (5=80-100%)"),
    ("Cc1nc(C(F)(F)F)ccc1-n1ncc(Br)c(O)c1=O", "5 (5=80-100%)"),
]

percentage damage caused to the plant, PRE Application IPOHE measured on Cc1nc(C(F)(F)F)ccc1-n1ncc(Cl)c(O)c1=O = 5 (5=80-100%)

percentage damage caused to the plant, PRE Application IPOHE measured on Cc1nc(C(F)(F)F)ccc1-n1ncc([S+](C)[O-])c(O)c1=O (stereo not drawn) = 3 (3=40-59%)

percentage damage caused to the plant, PRE Application IPOHE measured on Cc1c(-n2ncc(C(C)C)c(O)c2=O)ccc(S(C)(=O)=O)c1C1=NOCC1 = 1 (1=0-19%)

percentage damage caused to the plant, PRE Application IPOHE measured on CCc1ccc(-n2ncc(CC)c(O)c2=O)c(S(C)(=O)=O)c1 = 5 (5=80-100%)

percentage damage caused to the plant, PRE Application IPOHE measured on C=Cc1cnn(-c2ccc(C(F)(F)F)nc2C)c(=O)c1O = 5 (5=80-100%)

percentage damage caused to the plant, PRE Application IPOHE measured on Cc1c(-n2ncc(Cl)c(O)c2=O)ccc(S(C)(=O)=O)c1C1=NOCC1 = 5 (5=80-100%)

percentage damage caused to the plant, PRE Application IPOHE measured on Cc1c(-n2ncc(C#N)c(O)c2=O)ccc(S(C)(=O)=O)c1C1=NOCC1 [Compound 1.026] = 5 (5=80-100%)

====

- System: Ipomoea hederacea (IPOHE)
- assay_summary: Pre-emergence glasshouse herbicide test
- Format: in vivo
- reported_conditions: pre-emergence (sprayed after one day cultivation), 1000 g/h, evaluated after 13 days, five point scale
Below: a set of entries, each annotated with reported percentage damage caused to the plant, PRE Application IPOHE.

Check out these entries, answers already filled in.
# compound, experimental_value
data = [
    ("CS(=O)(=O)c1cc(C(F)(F)F)ccc1-n1ncc(S(C)(=O)=O)c(O)c1=O", "1 (1=0-19%)"),
    ("O=c1c(O)c(Cl)cnn1-c1ccc(C(F)(F)F)cc1C(F)(F)F", "4 (4=60-79%)"),
    ("CSc1cnn(-c2ccc(Cl)cc2S(C)(=O)=O)c(=O)c1O", "3 (3=40-59%)"),
]

percentage damage caused to the plant, PRE Application IPOHE measured on CS(=O)(=O)c1cc(C(F)(F)F)ccc1-n1ncc(Cl)c(O)c1=O = 5 (5=80-100%)

percentage damage caused to the plant, PRE Application IPOHE measured on C=Cc1cnn(-c2ccc(C(F)(F)F)cc2S(C)(=O)=O)c(=O)c1O = 5 (5=80-100%)

percentage damage caused to the plant, PRE Application IPOHE measured on Cc1c(-n2ncc([S+](C)[O-])c(O)c2=O)ccc(S(C)(=O)=O)c1C1=NOCC1 (centres unmarked) = 3 (3=40-59%)

percentage damage caused to the plant, PRE Application IPOHE measured on CCc1cnn(-c2ccc(C(F)(F)F)nc2S(C)(=O)=O)c(=O)c1O = 5 (5=80-100%)

percentage damage caused to the plant, PRE Application IPOHE measured on CCc1cnn(-c2ccc(S(C)(=O)=O)c(C3=NOCC3)c2C)c(=O)c1O = 4 (4=60-79%)

====

Below: a set of entries, each annotated with reported percentage damage caused to the plant, PRE Application AMARE.
- System: Amaranthus retoflexus (AMARE)
- assay_summary: Pre-emergence glasshouse herbicide test
- Format: in vivo
- reported_conditions: pre-emergence (sprayed after one day cultivation), 1000 g/h, evaluated after 13 days, five point scale

percentage damage caused to the plant, PRE Application AMARE measured on C=Cc1cnn(-c2ccc(S(C)(=O)=O)c(C3=NOCC3)c2C)c(=O)c1O = 5 (5=80-100%)

percentage damage caused to the plant, PRE Application AMARE measured on Cc1cnn(-c2ccc(C(F)(F)F)nc2C)c(=O)c1O = 5 (5=80-100%)

percentage damage caused to the plant, PRE Application AMARE measured on Cc1c(-n2ncc(Cl)c(O)c2=O)ccc(S(C)(=O)=O)c1C1=NOCC1 = 5 (5=80-100%)

percentage damage caused to the plant, PRE Application AMARE measured on Cc1nc(C(F)(F)F)ccc1-n1ncc(S(C)(=O)=O)c(O)c1=O = 3 (3=40-59%)

====

- System: Ipomoea hederacea (IPOHE)
- assay_summary: Pre-emergence glasshouse herbicide test
- Format: in vivo
- reported_conditions: pre-emergence (sprayed after one day cultivation), 1000 g/h, evaluated after 13 days, five point scale
Below: a set of entries, each annotated with reported percentage damage caused to the plant, PRE Application IPOHE.

# molecule, experimental_value
measured = [
    ("Cc1nc(C(F)(F)F)ccc1-n1ncc(S(C)(=O)=O)c(O)c1=O", "2 (2=20-39%)"),
    ("CCc1cnn(-c2ccc(Cl)cc2S(C)(=O)=O)c(=O)c1O", "4 (4=60-79%)"),
    ("CS(=O)(=O)c1cc(C(F)(F)F)ccc1-n1ncc(C2CC2)c(O)c1=O", "5 (5=80-100%)"),
    ("O=c1c(O)c(Cl)cnn1-c1ccc(C(F)(F)F)cc1Cl", "4 (4=60-79%)"),
    ("O=c1c(O)c(Cl)cnn1-c1ccc(Cl)cc1Cl", "1 (1=0-19%)"),
    ("Cc1c(-n2ncc(C#N)c(O)c2=O)ccc(S(C)(=O)=O)c1C1=NOCC1 [Compound 1.009]", "4 (4=60-79%)"),
    ("CSc1cnn(-c2ccc(C(F)(F)F)nc2C)c(=O)c1O", "5 (5=80-100%)"),
    ("CCc1cnn(-c2ccc(C(F)(F)F)nc2C)c(=O)c1O", "4 (4=60-79%)"),
]

percentage damage caused to the plant, PRE Application IPOHE measured on CCc1cnn(-c2ccc(C(F)(F)F)cc2S(C)(=O)=O)c(=O)c1O = 5 (5=80-100%)
